- Study System: T1, PUF4 RNA-binding domain (Saccharomyces cerevisiae, UniProt P25339 537-888)
- T1 sequence: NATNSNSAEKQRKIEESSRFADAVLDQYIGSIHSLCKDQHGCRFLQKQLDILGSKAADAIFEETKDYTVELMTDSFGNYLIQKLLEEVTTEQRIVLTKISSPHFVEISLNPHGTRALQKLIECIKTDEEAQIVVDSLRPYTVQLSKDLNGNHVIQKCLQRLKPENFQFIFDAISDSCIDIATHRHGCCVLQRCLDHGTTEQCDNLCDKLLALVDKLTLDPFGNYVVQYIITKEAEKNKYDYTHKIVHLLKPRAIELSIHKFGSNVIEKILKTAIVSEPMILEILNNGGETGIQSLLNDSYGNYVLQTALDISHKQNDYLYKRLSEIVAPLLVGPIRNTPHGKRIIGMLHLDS
- Measurement Notes: Mg; RNA-MaP; 20 mM Na-HEPES pH 7.4, 30 mM KOAc, 0.75 mM MgCl2, 0.1% Tween-20, 5% glycerol, 0.1 mg/mL BSA, 2 mM DTT; 25 C; 0.0125-409.6 nM protein
- Particulars: tags: N-His6-TEV cleaved; C-SNAP kept, Cy3B-labelled; label: tethered on chip by stalled RNA polymerase
Property: Kd (nM)

>>> result_number("Ie_S2_P5E.1_K5.1_C5.1_H5.1_[+1CCCT]_A5.1_F5.1_T5.1 (ssRNA) RNA: UUUGAUUAAUAUGAUAUCGUUCUUUCUUCCCUGUAUUAUUAUUCUUUCUCGAUAUCAUAUUAAUCUUU")
1.15
>>> result_number("UCUCUUUGUAUUACUUUCUCUU (ssRNA) [Ib_S1_P5E.1_K5.1_C5.1_H5.1_A5.1_F5.1_[T8C]_[A10T]_T5.1]")
44.6
>>> result_number("Ic_S2_P5E.1_K5.1_C5.1_H5.1_A5.1_[T5C]_[T6C]_[A7C]_F5.1_[T8A]_[T9G]_[A10C]_T5.1 (ssRNA) RNA: UUUGAUUAAUAUGAUAUCGUUCUUUCUUGUACCCAGCUUCUUUCUCGAUAUCAUAUUAAUCUUU")
768
>>> result_number("UCUCUUUGUACCAUACUCUCUU (ssRNA) [Ic_S1_P5E.1_K5.1_C5.1_H5.1_A5.1_[T5C]_[T6C]_F5.1_[T9A]_[A10C]_T5.1]")
1.59
>>> result_number("Id_ii_S2_P3E.2_K3.1_C3.2_[C-2T]_H3.1_A3.1_F3.1_T3.2_[T9G]_[A10T] (ssRNA) RNA: UUUGAUUAAUAUGAUAUCGUUCUUUCUUUUGUAUAUAGUUUCUUUCUCGAUAUCAUAUUAAUCUUU")
2.77
>>> result_number("Ic_S2_P5E.1_K5.1_C5.1_H5.1_A5.1_[T6A]_[A7C]_F5.1_[T8C]_[T9A]_[A10T]_T5.1 (ssRNA) RNA: UUUGAUUAAUAUGAUAUCGUUCUUUCUUGUAUACCAUUUCUUUCUCGAUAUCAUAUUAAUCUUU")
13.7
>>> result_number("Id_iii_S2_P4E.5_K4.1_C4.3_[T-3C]_H4.1_A4.1_F4.1_T4.2 (ssRNA) RNA: UUUGAUUAAUAUGAUAUCGUUCUUUCUCCUUGUAUAUUAGUUUCUUUCUCGAUAUCAUAUUAAUCUUU")
0.191
>>> result_number("Ib_S4_P5E.1_K5.1_C5.1_H5.1_[G2A]_[T3A]_A5.1_F5.1_T5.1 (ssRNA) RNA: UUUGACAACUGAUCGUUCUUUCUUAAAUUAUUAUUCUUUCUCGAUCAGUUGUCUUU")
2140
>>> result_number("Ib_S4_P5E.1_K5.1_C5.1_H5.1_A5.1_[T6A]_F5.1_[T8C]_T5.1 (ssRNA) RNA: UUUGACAACUGAUCGUUCUUUCUUGUAUAACUAUUCUUUCUCGAUCAGUUGUCUUU")
5.07
